target: activated JNK3 (Homo sapiens); construct: One such construct encodes amino acid residues Ser40-Glu402 of JNK3α1 and is preceded by Met and Gly residues; Met-Gly (initiator methionine and added glycine) (N); experiment: JNK inhibition assay (spectrophotometric coupled-enzyme assay); conditions: 10 nM activated JNK3, 10 μM ATP; read-out: Activity in the JNK3 Inhibition Assay (Ki rating A-C)
pKi: −log10 of the molar value.
experimentalEndpoint: pKi

Completed entries (count: 6):
structureSmiles: COc1ccc(Nc2nccc(-c3cc(OC)c(OC)c(OC)c3)n2)cc1
pKi: > 7.00

structureSmiles: COc1ccc(Nc2nccc(-c3cc(OC)c4c(c3)OCCO4)n2)cc1
pKi: > 7.00

structureSmiles: COc1cc(-c2ccnc(Nc3ccc4ccccc4c3)n2)cc(OC)c1OC
pKi: > 7.00

structureSmiles: COc1cc(-c2ccnc(Nc3cccc(Cl)c3)c2)cc(OC)c1OC
pKi: 6.00 to 7.00

structureSmiles: COc1cc(-c2ccnc(Nc3cccc(F)c3)n2)cc(OC)c1OC
pKi: > 7.00

structureSmiles: COc1cc(-c2ccnc(Nc3cccc(F)c3)n2)cc2c1OCO2
pKi: 6.00 to 7.00

Data request: Quick one: pKi of "COc1cccc(Nc2nccc(-c3cc(OC)c(OCCN4CCOCC4)c(OC)c3)n2)c1" ?
Data returned: > 7.00

Data request: What do you have for "COc1cc(-c2ccnc(Nc3ccccc3F)n2)cc(OC)c1OC" ?
Data returned: 6.00 to 7.00

Data request: What do you have for "COc1cc(-c2ccnc(Nc3cccc(F)c3F)n2)cc(OC)c1OC" ?
Data returned: > 7.00

---

Observed pKi for Lck kinase purified from bovine thymus (Bos taurus, UniProt Q3ZCM0), reported per entry below.
pKi: −log10 of the molar value.

Completed entries (count: 5):
structureSmiles: COc1ccc(Nc2nccc(-c3ccc(OC)c(OC)c3OC)n2)cc1[N+](=O)[O-]
experimentalEndpoint: pKi
endpointValue: 6.00 to 7.00
--
structureSmiles: COc1ccc(-c2ccccc2)cc1Nc1nccc(-c2ccc(OC)c(OC)c2OC)n1
experimentalEndpoint: pKi
endpointValue: 6.00 to 7.00
--
structureSmiles: COc1ccc(-c2ccnc(Nc3cccc(Oc4ccccc4)c3)n2)c2c1OCCO2
experimentalEndpoint: pKi
endpointValue: 6.00 to 7.00
--
structureSmiles: COc1ccc(-c2ccnc(Nc3cc(-c4ccc(N(C)C)cc4)ccc3C)n2)c(OC)c1OC
experimentalEndpoint: pKi
endpointValue: > 7.00
--
structureSmiles: COc1ccc(-c2ccnc(Nc3cccc(OCc4ccccc4)c3)n2)c2c1OCCO2
experimentalEndpoint: pKi
endpointValue: 6.00 to 7.00

Data request: Quick one: pKi of "COc1cc(-c2ccnc(Nc3cccc(N(C)C)c3)n2)cc(OC)c1OC" ?
Data returned: 6.00 to 7.00

Data request: What do you have for "COc1ccccc1-c1cccc(Nc2nccc(-c3ccc(OC)c(OC)c3OC)n2)c1" ?
Data returned: 6.00 to 7.00

Data request: What do you have for "COc1cc(-c2ccnc(Nc3ccc(F)cc3)n2)cc(OC)c1OC" ?
Data returned: < 6.00

---

molecular target: full length recombinant human Src kinase (Homo sapiens, UniProt P12931); construct: full length recombinant human Src kinase; purchased Upstate Biotechnology 14-117; host or cells: baculo viral cells (baculovirus expression); assay: Src inhibition assay (33P incorporation into poly Glu-Tyr); format: biochemical; conditions: at a 2 μM inhibitor concentration; read-out: Activity in the SRC Inhibition Assay (percent inhibition rating D-F)
Sequence (P12931 whole entry): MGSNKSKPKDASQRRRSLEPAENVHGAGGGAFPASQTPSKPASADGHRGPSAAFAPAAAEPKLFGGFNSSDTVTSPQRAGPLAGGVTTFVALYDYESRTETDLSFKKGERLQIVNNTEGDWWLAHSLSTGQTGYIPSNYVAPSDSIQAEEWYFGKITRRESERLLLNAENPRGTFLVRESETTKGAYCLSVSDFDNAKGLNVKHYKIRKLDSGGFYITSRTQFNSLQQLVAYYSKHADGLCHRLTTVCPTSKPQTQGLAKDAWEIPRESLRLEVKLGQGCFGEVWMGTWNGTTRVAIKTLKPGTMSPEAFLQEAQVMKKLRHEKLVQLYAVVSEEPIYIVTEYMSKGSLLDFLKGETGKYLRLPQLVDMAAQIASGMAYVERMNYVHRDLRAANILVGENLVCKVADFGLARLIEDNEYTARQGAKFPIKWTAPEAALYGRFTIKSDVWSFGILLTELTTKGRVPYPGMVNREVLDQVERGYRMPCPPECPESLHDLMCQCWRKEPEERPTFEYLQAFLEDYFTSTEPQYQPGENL
experimentalEndpoint: inhibition at 2 µM

Completed entries (count: 5):
structureSmiles: COc1cc(-c2ccnc(Nc3cccc(Br)c3)n2)cc(OC)c1OC
endpointValue: 67 to 100%
//
structureSmiles: COc1cc(-c2ccnc(Nc3ccc4c(c3)OCO4)n2)cc(OC)c1OC
endpointValue: 24 to 66%
//
structureSmiles: COc1cc(-c2ccnc(Nc3cccc(F)c3)n2)cc(OC)c1OC
endpointValue: 67 to 100%
//
structureSmiles: COc1cc(-c2ccnc(Nc3cccc(N)c3)n2)cc(OC)c1OC
endpointValue: 24 to 66%
//
structureSmiles: CCOc1c(OC)cc(-c2ccnc(Nc3cccc(OC)c3)n2)cc1OC
endpointValue: 67 to 100%

Data request: Quick one: inhibition at 2 µM of "COc1cc(-c2ccnc(Nc3ccc(F)cc3)n2)cc(OC)c1OC" ?
Data returned: < 33%

Data request: What do you have for "COc1cc(-c2ccnc(Nc3ccc4ccccc4c3)n2)cc(OC)c1OC" ?
Data returned: < 33%

Data request: What do you have for "COc1cc(-c2ccnc(Nc3ccc(Cl)cc3)n2)cc2c1OCCO2" ?
Data returned: 24 to 66%

Data request: What do you have for "COc1ccc(Nc2nccc(-c3cc(OC)c4c(c3)OCCO4)n2)cc1" ?
Data returned: 24 to 66%

Data request: What do you have for "COc1cc(-c2ccnc(Nc3cccc(F)c3F)n2)cc(OC)c1OC" ?
Data returned: 24 to 66%

---

Listed here: items and their measured Ki.
target: full length recombinant human Src kinase (Homo sapiens); construct: full length recombinant human Src kinase; assay: Src inhibition assay (33P incorporation into poly Glu-Tyr); settings: 10 μM ATP; read-out: Activity in the SRC Inhibition Assay (Ki rating A-C)

structureSmiles: COc1ccc(-c2ccnc(Nc3cccc(S(=O)(=O)c4ccccc4)c3)n2)c(OC)c1OC
testedTarget: full length recombinant human Src kinase (Homo sapiens)
Ki: < 0.1 µM

structureSmiles: COc1ccc(-c2ccnc(Nc3cccc(Oc4ccccc4)c3)n2)c(OC)c1OC
testedTarget: full length recombinant human Src kinase (Homo sapiens)
Ki: < 0.1 µM

structureSmiles: COc1ccc(Nc2nccc(-c3ccc(OC)c(OC)c3OC)n2)cc1-c1ccc(Cl)cc1
testedTarget: full length recombinant human Src kinase (Homo sapiens)
Ki: 0.1 to 1 µM

structureSmiles: COc1ccc(-c2cccc(Cl)c2)cc1Nc1nccc(-c2ccc(OC)c(OC)c2OC)n1
testedTarget: full length recombinant human Src kinase (Homo sapiens)
Ki: 0.1 to 1 µM

structureSmiles: COc1ccc(-c2ccnc(Nc3cccc(-c4ccc(C)cc4)c3)n2)c(OC)c1OC
testedTarget: full length recombinant human Src kinase (Homo sapiens)
Ki: < 0.1 µM

Data request: Quick one: Ki of "COc1ccc(Nc2nccc(-c3ccc(OC)c(OC)c3OC)n2)cc1-c1cccc(F)c1" ?
Data returned: < 0.1 µM

Data request: What do you have for "COc1ccc(-c2ccnc(Nc3cc(-c4cccc(Cl)c4)ccc3F)n2)c(OC)c1OC" ?
Data returned: > 1 µM

Data request: What do you have for "COc1cc(-c2ccnc(Nc3ccc(N)cc3)n2)cc(OC)c1OC" ?
Data returned: > 1 µM

---

Listed here: items and their measured Ki.
biological target: activated JNK3 (Homo sapiens, UniProt P53779); construct: One such construct encodes amino acid residues Ser40-Glu402 of JNK3α1 and is preceded by Met and Gly residues; Met-Gly (initiator methionine and added glycine) (N); assay: JNK inhibition assay (spectrophotometric coupled-enzyme assay); details: 10 nM activated JNK3, 10 μM ATP; read-out: Activity in the JNK3 Inhibition Assay (Ki rating A-C)
Sequence (P53779 40-402): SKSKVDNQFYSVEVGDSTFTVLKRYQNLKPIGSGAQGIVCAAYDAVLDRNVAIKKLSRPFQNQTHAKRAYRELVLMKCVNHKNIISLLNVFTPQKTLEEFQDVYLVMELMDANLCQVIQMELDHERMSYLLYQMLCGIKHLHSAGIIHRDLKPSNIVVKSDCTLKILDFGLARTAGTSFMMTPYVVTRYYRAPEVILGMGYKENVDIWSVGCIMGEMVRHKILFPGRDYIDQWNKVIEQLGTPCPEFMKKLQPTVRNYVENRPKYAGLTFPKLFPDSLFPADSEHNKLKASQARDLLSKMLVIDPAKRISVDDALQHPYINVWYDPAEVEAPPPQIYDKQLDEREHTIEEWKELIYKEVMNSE

Completed entries (count: 5):
molecule: COc1cccc(Nc2nccc(-c3cc(C)c(OC)c(C)c3)n2)c1 [Compound I-52]
Ki: < 100 nM
--
molecule: COc1cc(-c2ccnc(Nc3nccs3)n2)cc(OC)c1OC [Compound I-85]
Ki: 100 to 1000 nM
--
molecule: COc1cc(-c2ccnc(Nc3ccc(C)cc3)n2)cc2c1OCO2 [Compound I-28]
Ki: 100 to 1000 nM
--
molecule: COc1c(Cl)cc(-c2ccnc(Nc3cccc(Cl)c3)n2)cc1Cl [Compound I-41]
Ki: 100 to 1000 nM
--
molecule: COc1cc(-c2ccnc(Nc3cccc(Cl)c3)n2)cc2c1OCCO2 [Compound I-75]
Ki: < 100 nM

Data request: Entry COc1cc(-c2ccnc(Nc3ccc(Cl)cc3)n2)cc(OC)c1OC [Compound I-1] , system activated JNK3 (Homo sapiens, UniProt P53779): what Ki was measured?
Data returned: 100 to 1000 nM

Data request: What do you have for COc1cc(-c2ccnc(NCc3ccccc3)n2)cc(OC)c1OC [Compound I-37] ?
Data returned: > 1000 nM

Data request: What do you have for COc1cc(-c2ccnc(Nc3ccccc3)c2)cc(OC)c1OC [Compound I-155] ?
Data returned: 100 to 1000 nM

Data request: What do you have for COc1cc(-c2ccnc(Nc3cccc(OCc4ccccc4)c3)n2)cc(OC)c1OC [Compound I-38] ?
Data returned: < 100 nM

---

Observed pKi for Lck kinase purified from bovine thymus (Bos taurus), reported per entry below.
pKi: −log10 of the molar value.

structureSmiles: COc1cccc(Nc2nccc(-c3ccc(OC)c(OC)c3OC)n2)c1
pKi: 6.00 to 7.00

structureSmiles: COc1ccc(-c2ccnc(Nc3cc(-c4cccc(C(F)(F)F)c4)ccc3C)n2)c(OC)c1OC
pKi: < 6.00

structureSmiles: COc1ccc(-c2ccnc(Nc3cccc(Oc4ccccc4)c3)n2)c(OC)c1OC
pKi: > 7.00

structureSmiles: COc1c(-c2ccnc(Nc3cccc(OCc4ccccc4)c3)n2)ccc2c1OCCO2
pKi: < 6.00

structureSmiles: COc1ccc(Oc2ccccc2)cc1Nc1nccc(-c2ccc(OC)c(OC)c2OC)n1
pKi: > 7.00

structureSmiles: COc1ccc(-c2ccnc(Nc3cccc(-c4cccc(Cl)c4)c3)n2)c(OC)c1OC
pKi: > 7.00

structureSmiles: COc1ccc(-c2ccnc(Nc3cccc(-c4ccccc4F)c3)n2)c(OC)c1OC
pKi: > 7.00

structureSmiles: COc1ccc(-c2ccnc(Nc3cc(-c4cccc(Cl)c4)ccc3C)n2)c(OC)c1OC
pKi: 6.00 to 7.00

Shift focus to the following entry.
Data request: Quick one: pKi of "COc1ccc(-c2ccnc(Nc3cccc(-c4cccnc4)c3)n2)c(OC)c1OC" ?
Data returned: 6.00 to 7.00
